Attribution: patent US20120101083A1

subject.of.test: S1P1 receptor (S1P1 expressing RH7777 membranes) (Homo sapiens, UniProt P21453)
Construct: expressed in transfected cells; host or cells: RH7777 cells (membranes)
Sequence (P21453 whole entry): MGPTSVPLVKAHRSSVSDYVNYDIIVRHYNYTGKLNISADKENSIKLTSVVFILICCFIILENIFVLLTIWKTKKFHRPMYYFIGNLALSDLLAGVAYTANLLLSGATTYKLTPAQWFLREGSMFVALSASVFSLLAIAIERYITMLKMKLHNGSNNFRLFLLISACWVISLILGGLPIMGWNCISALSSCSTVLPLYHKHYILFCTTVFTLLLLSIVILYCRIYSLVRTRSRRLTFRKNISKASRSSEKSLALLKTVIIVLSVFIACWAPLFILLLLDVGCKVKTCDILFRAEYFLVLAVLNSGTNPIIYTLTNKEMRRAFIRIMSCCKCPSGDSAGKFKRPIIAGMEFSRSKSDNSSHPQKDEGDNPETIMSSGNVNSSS
assay.details: S1P1 GTPγS assay
Type: biochemical
condition.parameters: tested in one of the above S1P1 assays (two GTPγS formats)
Protocol: The potencies and efficacies of the compounds of this invention for the S1P1 receptor can be determined by GTPγS assay performed on the human cloned receptor as described herein. Membrane preparation for S1P1 GTPγS assay All steps were performed at 4° C. Cells were homogenised within a glass Waring blender for 2 bursts of 15 secs in 200 mls of buffer (50 mM HEPES, 1 mM leupeptin, 25 μg/ml bacitracin, 1 mM EDTA, 1 mM PMSF, 2 μM pepstatin A). […]
Counter-ions that a name gives are not always drawn.
quantity.kind: EC50

Which EC50 value is on record for CC(C)Oc1ccc(-c2nc(-c3ccc4c(c3)CCN(C(=O)CN3CC(O)C3)CC4)no2)cc1C#N [Example 106, hydrochloride] ?
≤ 1000 nM

Which EC50 value is on record for Cc1c(-c2noc(-c3ccc(OC(C)C)c(C#N)c3)n2)ccc2c1CCN(CCC(N)=O)C2 ?
≤ 100 nM

Which EC50 value is on record for CC(C)Oc1ccc(-c2nc(-c3ccc4c(c3)CCN(C(=O)[C@@](C)(N)CO)CC4)no2)cc1C#N ?
≤ 100 nM

Which EC50 value is on record for CC(C)Oc1ccc(-c2nnc(-c3ccc4c(c3)CCN(CCCO)CC4)s2)cc1C#N ?
≤ 1000 nM

Which EC50 value is on record for CCCNc1ccc(-c2nc(-c3ccc4c(c3)CCN(CC(O)CO)CC4)no2)cc1C#N (stereo not drawn) ?
≤ 100 nM

Which EC50 value is on record for CCCNc1ncc(-c2nc(-c3ccc4c(c3)CCN(C(CO)CO)CC4)no2)cc1C#N [Example 150, dihydrochloride] ?
≤ 1000 nM
